# key: entry, value: pIC50
system: BaF3 FLT3 I836L+D mutant cells; assay: MTT growth inhibition assay, BaF3 FLT3 I836L+D cells; assay type: cell-based; details: Mus musculus, no IL-3, 48 h, read-out: Proliferation IC50
pIC50: −log10 of the molar value.
Recorded Metric: pIC50

INSERT INTO results (smiles_repr, recorded_metric, result) VALUES
  ('CC1(COc2ccc3c(c2)ncn3-c2ccc3cccc(N4CCC(N)CC4)c3n2)COC1', 'pIC50', 7.30),
  ('Cc1ccc(C(=O)Nc2ccc(CN3CCN(C)CC3)c(C(F)(F)F)c2)cc1C#Cc1cnc2cccnn12', 'pIC50', '> 9.00'),
  ('CCN(CC)CCNC(=O)c1c(C)[nH]c(/C=C2\C(=O)Nc3ccc(F)cc32)c1C', 'pIC50', '< 6.70'),
  ('Cc1ccc(F)c(NC(=O)Nc2ccc(-c3cccc4[nH]nc(N)c34)cc2)c1', 'pIC50', '< 6.70'),
  ('CNC(=O)c1cc(Oc2ccc(NC(=O)Nc3ccc(Cl)c(C(F)(F)F)c3)cc2)ccn1', 'pIC50', '< 6.70'),
  ('O=C(c1ccc(/C=C/c2n[nH]c3ccccc23)cc1)N1CCNCC1', 'pIC50', '< 6.70'),
  ('Cc1cc2ncc(-c3ccccc3)nc2cc1C', 'pIC50', '< 5.52'),
  ('C[C@]12O[C@H](C[C@]1(O)CO)n1c3ccccc3c3c4c(c5c6ccccc6n2c5c31)CNC4=O', 'pIC50', 8.68);
